- System: SK-MEL-2 melanoma
- ASSAY_REMARKS: NCI tumour cell line growth inhibition, 48 h
MEASURED_PARAMETER: TGI (µM)
Give your result in µM as a bare value.

Enquiry: Report TGI for CC(=O)NC1C(OCc2ccccc2)OC(CO)C(O)C1OCC(=O)N1CCCC1C(=O)NC(CCC(=O)NCCCCCNc1c2ccccc2nc2cccc([N+](=O)[O-])c12)C(N)=O (centres undefined) please.
Return: 0.0456

Enquiry: Give the measured TGI of `Cc1cc(-c2ccc(C(=O)C(c3ccccc3)(c3ccccc3)c3ccccc3)[nH]2)on1` .
Return: 36

Enquiry: For `NS(=O)(=O)c1ccc(NC(=O)c2cccc3c(Nc4ccc(S(N)(=O)=O)cc4)c4ccccc4nc23)cc1` , what is its reported TGI?
Return: 82.3
